In this section we review reported MIC values for a set of molecules.
System: Streptococcus pneumoniae ATCC6303
Assay: MIC, microbroth dilution (NCCLS)
Assay type: cell-based
Settings: rifS strain, THY Broth with 1 mg/mL catalase, 5% CO2, 37° C., read-out: MIC

INSERT INTO results (molecule, attribute_measured, assay_value) VALUES
  ('COc1c(N2CCN(C3CCN(/N=C/c4c5c(O)c6c(O)c(C)c7c(c6c4O)C(=O)[C@@](C)(O/C=C/[C@H](OC)[C@@H](C)[C@@H](OC(C)=O)[C@H](C)[C@H](O)[C@H](C)[C@@H](O)[C@@H](C)/C=C/C=C(/C)C(=O)N5)O7)C3)CC2)c(F)cc2c(=O)c(C(=O)O)cn(C3CC3)c12 (mixture of isomers)', 'MIC', '0.008 to 0.06 µg/mL');

Now consider a different molecule.
// assay Streptococcus pneumoniae ATCC6303, entry COc1c(N2CCN(/N=C/c3c4c(O)c5c(O)c(C)c6c(c5c3O)C(=O)[C@@](C)(O/C=C/[C@H](OC)[C@@H](C)[C@@H](OC(C)=O)[C@H](C)[C@H](O)[C@H](C)[C@@H](O)[C@@H](C)/C=C/C=C(/C)C(=O)N4)O6)C(C(=O)O)C2)c(F)cc2c(=O)c(C(=O)O)cn(C3CC3)c12 (mixture of isomers) , MIC value = 0.008 to 0.06 µg/mL

====

In this section we review reported MIC values for a set of compounds.
System: Streptococcus pneumoniae ATCC6303
Experiment: MIC, microbroth dilution (NCCLS)
Assay type: cell-based
Details: rifS strain, THY Broth with 1 mg/mL catalase, 5% CO2, 37° C., read-out: MIC

Some solved cases for reference:
INSERT INTO results (compound, assay_value) VALUES
  ('COc1c(N2CCC(N(Cc3ccccn3)/N=C/c3c4c(O)c5c(O)c(C)c6c(c5c3O)C(=O)[C@@](C)(O/C=C/[C@H](OC)[C@@H](C)[C@@H](OC(C)=O)[C@H](C)[C@H](O)[C@H](C)[C@@H](O)[C@@H](C)/C=C/C=C(/C)C(=O)N4)O6)C2)c(F)cc2c(=O)c(C(=O)O)cn(C3CC3)c12 (mixture of isomers)', '0.008 to 0.06 µg/mL'),
  ('CO[C@H]1/C=C/O[C@@]2(C)Oc3c(C)c(O)c4c(O)c(c(/C=N/NCC5CCN(c6c(F)cc7c(=O)c(C(=O)O)cn(C8CC8)c7c6Cl)C5)c(O)c4c3C2=O)NC(=O)/C(C)=C\C=C\[C@H](C)[C@H](O)[C@@H](C)[C@@H](O)[C@@H](C)[C@H](OC(C)=O)[C@@H]1C (mixture of isomers)', '0.008 to 0.06 µg/mL');

Now consider a different compound.
// assay Streptococcus pneumoniae ATCC6303, entry COc1c(N2CCC(C(C)N/N=C/c3c4c(O)c5c(O)c(C)c6c(c5c3O)C(=O)[C@@](C)(O/C=C/[C@H](OC)[C@@H](C)[C@@H](OC(C)=O)[C@H](C)[C@H](O)[C@H](C)[C@@H](O)[C@@H](C)/C=C/C=C(/C)C(=O)N4)O6)C2)c(F)cc2c(=O)c(C(=O)O)cn(C3CC3)c12 (stereo partly drawn) , MIC value = 0.008 to 0.06 µg/mL

====

Test system: Staphylococcus aureus ATCC29213 rpoB^H418Y
Experiment: microbe, parasite or virus in culture
Type: cell-based
Settings: Staphylococcus aureus, ATCC29213; rifR strain; Cation-Adjusted Mueller-Hinton Broth, 37° C.; read-out: MIC
attribute.measured: MIC

INSERT INTO measurements (molecule, study_target, attribute_measured, assay_value) VALUES
  ('COc1c(N2CCCC(N/N=C/c3c4c(O)c5c(O)c(C)c6c(c5c3O)C(=O)[C@@](C)(O/C=C/[C@H](OC)[C@@H](C)[C@@H](OC(C)=O)[C@H](C)[C@H](O)[C@H](C)[C@@H](O)[C@@H](C)/C=C/C=C(/C)C(=O)N4)O6)C2)c(F)cc2c(=O)c(C(=O)O)cn(C3CC3)c12 (mixture of isomers)', 'Staphylococcus aureus ATCC29213 rpoB^H418Y', 'MIC', '0.06 to 16 µg/mL'),
  ('COc1c(N2CCC(C(C)NC3CCN(/N=C/c4c5c(O)c6c(O)c(C)c7c(c6c4O)C(=O)[C@@](C)(O/C=C/[C@H](OC)[C@@H](C)[C@@H](OC(C)=O)[C@H](C)[C@H](O)[C@H](C)[C@@H](O)[C@@H](C)/C=C/C=C(/C)C(=O)N5)O7)CC3)C2)c(F)cc2c(=O)c(C(=O)O)cn(C3CC3)c12 (mixture of isomers)', 'Staphylococcus aureus ATCC29213 rpoB^H418Y', 'MIC', '0.06 to 16 µg/mL');

Now consider a different molecule.
Briefly, MIC measured for CO[C@H]1/C=C/O[C@@]2(C)Oc3c(C)c(O)c4c(c3C2=O)C(=O)C(/C=N/N2CCN(c3cc5c(cc3F)c(=O)c(C(=O)O)cn5C3CC3)CC2)=C(NC(=O)/C(C)=C\C=C\[C@H](C)[C@H](O)[C@@H](C)[C@@H](O)[C@@H](C)[C@H](OC(C)=O)[C@@H]1C)C4=O : 0.06 to 16 µg/mL

====

Test system: Streptococcus pneumoniae ATCC6303
Assay: MIC, microbroth dilution (NCCLS)
Format: cell-based
Conditions: rifS strain, THY Broth with 1 mg/mL catalase, 5% CO2, 37° C., read-out: MIC
In this section we review reported MIC values for a set of molecules.

Some solved cases for reference:
INSERT INTO results (molecule, attribute_measured, assay_value) VALUES
  ('COc1c(N2CCC(N/N=C/c3c4c(O)c5c(O)c(C)c6c(c5c3O)C(=O)[C@@](C)(O/C=C/[C@H](OC)[C@@H](C)[C@@H](OC(C)=O)[C@H](C)[C@H](O)[C@H](C)[C@@H](O)[C@@H](C)/C=C/C=C(/C)C(=O)N4)O6)C2)c(F)cc2c(=O)c(C(=O)O)cn(C3CC3)c12 (mixture of isomers)', 'MIC', '0.008 to 0.06 µg/mL'),
  ('COc1c(N2CC3CCCN(/N=C/C4=C5NC(=O)/C(C)=C\C=C\[C@H](C)[C@H](O)[C@@H](C)[C@@H](O)[C@@H](C)[C@H](OC(C)=O)[C@H](C)[C@@H](OC)/C=C/O[C@@]6(C)Oc7c(C)c(O)c(c(c7C6=O)C4=O)C5=O)C3C2)c(F)cc2c(=O)c(C(=O)O)cn(C3CC3)c12 (stereo partly shown)', 'MIC', '0.008 to 0.06 µg/mL'),
  ('COc1c(N2CCC(C3(N4CCN(/N=C/c5c6c(O)c7c(O)c(C)c8c(c7c5O)C(=O)[C@@](C)(O/C=C/[C@H](OC)[C@@H](C)[C@@H](OC(C)=O)[C@H](C)[C@H](O)[C@H](C)[C@@H](O)[C@@H](C)/C=C/C=C(/C)C(=O)N6)O8)CC4)CC3)C2)c(F)cc2c(=O)c(C(=O)O)cn(C3CC3)c12 (mixture of isomers)', 'MIC', '0.008 to 0.06 µg/mL'),
  ('CO[C@H]1/C=C/O[C@@]2(C)Oc3c(C)c(O)c4c(c3C2=O)C(=O)C(/C=N/N2CCN(c3cc5c(cc3F)c(=O)c(C(=O)O)cn5C3CC3)CC2)=C(NC(=O)/C(C)=C\C=C\[C@H](C)[C@H](O)[C@@H](C)[C@@H](O)[C@@H](C)[C@H](OC(C)=O)[C@@H]1C)C4=O', 'MIC', '0.008 to 0.06 µg/mL'),
  ('CO[C@H]1/C=C/O[C@@]2(C)Oc3c(C)c(O)c4c(O)c(c(/C=N/N5CCC(N(C)C6(C7CCN(c8c(F)cc9c(=O)c(C(=O)O)cn(C%10CC%10)c9c8Cl)C7)CC6)CC5)c(O)c4c3C2=O)NC(=O)/C(C)=C\C=C\[C@H](C)[C@H](O)[C@@H](C)[C@@H](O)[C@@H](C)[C@H](OC(C)=O)[C@@H]1C (mixture of isomers)', 'MIC', '0.008 to 0.06 µg/mL');

Briefly, MIC measured for COc1c(N2CCC(C(C)NC3CCN(/N=C/c4c5c(O)c6c(O)c(C)c7c(c6c4O)C(=O)[C@@](C)(O/C=C/[C@H](OC)[C@@H](C)[C@@H](OC(C)=O)[C@H](C)[C@H](O)[C@H](C)[C@@H](O)[C@@H](C)/C=C/C=C(/C)C(=O)N5)O7)CC3)C2)c(F)cc2c(=O)c(C(=O)O)cn(C3CC3)c12 (mixture of isomers) : 0.008 to 0.06 µg/mL

====

Tested on: Staphylococcus aureus ATCC29213 rpoB^H418Y
Test: microbe, parasite or virus in culture
Type: cell-based
Conditions: Staphylococcus aureus, ATCC29213; rifR strain; Cation-Adjusted Mueller-Hinton Broth, 37° C.; read-out: MIC
attribute.measured: MIC

INSERT INTO assay_data (molecule, study_target, attribute_measured, assay_value) VALUES
  ('COc1c(N2CCC(C3(N4CCN(/N=C/c5c6c(O)c7c(O)c(C)c8c(c7c5O)C(=O)[C@@](C)(O/C=C/[C@H](OC)[C@@H](C)[C@@H](OC(C)=O)[C@H](C)[C@H](O)[C@H](C)[C@@H](O)[C@@H](C)/C=C/C=C(/C)C(=O)N6)O8)CC4)CC3)C2)c(F)cc2c(=O)c(C(=O)O)cn(C3CC3)c12 (mixture of isomers)', 'Staphylococcus aureus ATCC29213 rpoB^H418Y', 'MIC', '0.06 to 16 µg/mL');

Now consider a different molecule.
Briefly, MIC measured for COc1c(N2CCN(/N=C/C3=C4NC(=O)/C(C)=C\C=C\[C@H](C)[C@H](O)[C@@H](C)[C@@H](O)[C@@H](C)[C@H](OC(C)=O)[C@H](C)[C@@H](OC)/C=C/O[C@@]5(C)Oc6c(C)c(O)c(c(c6C5=O)C3=O)C4=O)C(C)C2)c(F)cc2c(=O)c(C(=O)O)cn(C3CC3)c12 (mixture of isomers) : 0.06 to 16 µg/mL
